Recorded values, source ChEMBL document CHEMBL4041521.

target_of_assay: Histone deacetylase 9 (Homo sapiens, UniProt Q9UKV0)
Sequence (Q9UKV0 whole entry): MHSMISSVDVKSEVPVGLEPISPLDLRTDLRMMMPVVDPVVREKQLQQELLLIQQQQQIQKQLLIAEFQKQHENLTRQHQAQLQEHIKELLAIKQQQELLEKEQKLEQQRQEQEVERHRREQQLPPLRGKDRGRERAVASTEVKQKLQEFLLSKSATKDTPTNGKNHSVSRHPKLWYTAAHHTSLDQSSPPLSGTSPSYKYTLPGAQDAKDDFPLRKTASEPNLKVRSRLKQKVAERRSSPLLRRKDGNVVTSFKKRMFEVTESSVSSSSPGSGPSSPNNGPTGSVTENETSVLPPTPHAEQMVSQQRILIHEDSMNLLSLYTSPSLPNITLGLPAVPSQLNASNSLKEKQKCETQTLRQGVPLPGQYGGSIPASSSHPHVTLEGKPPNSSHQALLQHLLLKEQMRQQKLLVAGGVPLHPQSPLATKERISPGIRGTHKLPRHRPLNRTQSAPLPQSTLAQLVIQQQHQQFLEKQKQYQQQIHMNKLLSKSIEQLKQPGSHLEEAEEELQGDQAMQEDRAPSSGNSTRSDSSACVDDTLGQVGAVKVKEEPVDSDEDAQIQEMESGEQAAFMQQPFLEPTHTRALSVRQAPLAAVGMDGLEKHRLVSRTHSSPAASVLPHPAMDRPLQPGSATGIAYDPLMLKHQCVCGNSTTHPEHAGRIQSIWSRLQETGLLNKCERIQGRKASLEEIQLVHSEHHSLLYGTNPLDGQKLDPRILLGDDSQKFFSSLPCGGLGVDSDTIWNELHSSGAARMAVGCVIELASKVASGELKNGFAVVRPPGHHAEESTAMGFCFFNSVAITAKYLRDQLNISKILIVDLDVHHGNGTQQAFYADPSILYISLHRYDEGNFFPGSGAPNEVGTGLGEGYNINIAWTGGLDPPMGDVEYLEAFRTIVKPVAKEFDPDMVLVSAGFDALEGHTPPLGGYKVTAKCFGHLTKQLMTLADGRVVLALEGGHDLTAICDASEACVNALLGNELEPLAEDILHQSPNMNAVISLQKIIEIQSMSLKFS
experiment_notes: Inhibition of recombinant human HDAC9 using fluorogenic substrate by fluorescence assay
conditions: read-out: IC50
measured_property: IC50 (nM)
Reply with just the number (in nM).

Q: Give me measured IC50, please, for this molecule: COc1ccc2c(C(=O)c3cc(OC)c(OC)c(OC)c3)cn(Cc3ccc(C(=O)NO)cc3)c2c1
Ans: 1680

###

target_of_assay: Histone deacetylase 4 (Homo sapiens, UniProt P56524)
Sequence (P56524 whole entry): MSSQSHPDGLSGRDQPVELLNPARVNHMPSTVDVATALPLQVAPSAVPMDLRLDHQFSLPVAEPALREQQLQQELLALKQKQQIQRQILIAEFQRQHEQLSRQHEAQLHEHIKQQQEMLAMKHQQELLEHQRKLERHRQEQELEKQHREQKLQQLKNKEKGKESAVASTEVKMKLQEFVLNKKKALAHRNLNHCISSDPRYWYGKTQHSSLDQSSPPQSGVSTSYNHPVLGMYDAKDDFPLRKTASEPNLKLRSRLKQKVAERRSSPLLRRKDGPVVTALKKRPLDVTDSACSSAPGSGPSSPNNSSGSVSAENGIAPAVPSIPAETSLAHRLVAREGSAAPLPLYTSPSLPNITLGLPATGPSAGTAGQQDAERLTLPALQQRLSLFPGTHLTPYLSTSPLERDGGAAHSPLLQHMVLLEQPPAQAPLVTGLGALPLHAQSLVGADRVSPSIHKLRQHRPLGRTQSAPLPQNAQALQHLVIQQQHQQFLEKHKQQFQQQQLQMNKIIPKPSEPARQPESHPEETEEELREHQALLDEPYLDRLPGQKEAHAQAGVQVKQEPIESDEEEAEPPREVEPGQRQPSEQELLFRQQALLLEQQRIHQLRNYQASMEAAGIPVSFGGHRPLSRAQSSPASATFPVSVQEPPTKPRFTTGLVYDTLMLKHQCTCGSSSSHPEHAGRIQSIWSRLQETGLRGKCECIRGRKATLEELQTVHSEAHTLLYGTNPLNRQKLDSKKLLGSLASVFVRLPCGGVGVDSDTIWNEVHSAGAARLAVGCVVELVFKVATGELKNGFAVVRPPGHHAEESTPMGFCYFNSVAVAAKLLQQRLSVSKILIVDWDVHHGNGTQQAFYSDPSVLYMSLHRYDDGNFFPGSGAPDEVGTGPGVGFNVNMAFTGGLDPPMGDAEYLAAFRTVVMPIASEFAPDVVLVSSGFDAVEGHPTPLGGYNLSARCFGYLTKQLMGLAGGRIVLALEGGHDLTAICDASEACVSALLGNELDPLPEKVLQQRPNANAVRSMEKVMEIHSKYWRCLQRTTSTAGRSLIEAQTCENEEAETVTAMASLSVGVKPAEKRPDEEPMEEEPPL
experiment_notes: Inhibition of recombinant human HDAC4 using fluorogenic substrate by fluorescence assay
conditions: read-out: IC50
measured_property: IC50 (nM)
The reply should be a number in nM, with the unit left off.

Q: Supply recorded IC50 for COc1ccc2c(C(=O)c3cc(OC)c(OC)c(OC)c3)cn(Cc3ccc(C(=O)NO)cc3)c2c1 here.
Ans: 1980
